- System: T1, Histidine-tagged human CD3e protein (human, UniProt P07766 23-126)
- T1 construct: also called hCD3e-His; not shown: His tag
- T1 sequence (P07766 23-126 limits assumed): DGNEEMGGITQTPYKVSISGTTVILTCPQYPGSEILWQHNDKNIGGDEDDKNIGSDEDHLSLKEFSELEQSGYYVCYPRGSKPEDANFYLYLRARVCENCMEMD
- Assay text: SPR (Biacore), human CD3e
Quick reference for kon among some binders

# Binder, kon, M⁻¹ s⁻¹
data = [
    ("1B1-H4K2-IgG1-LALA (antibody, V domains shown, Humanized; human IgG1 with LALA mutations; also called H4K2 (humanized 1B1)) VH: QVQLVQSGAEVVKPGASVKLSCKASGYTFTSYWMHWVRQRHGQGLEWIGNIYPDSGTTNYGEKFKTRGTLTVDTSTSTAYMELSSLRSEDTAVYYCTRDTSGQYYFDYWGQGTLVTVSS VL: DIVMTQSPDSLAVSAGERVTMNCKSSQSLLNSRTRKNYLAWYQHKPGQSPKLLIYWASTRESGVPDRFSGSGSGTDFTLTISSLQAEDVAVYYCVQSFSLRAFGGGTKVEIK", 640000),
    ("1B1-H4K1-IgG1-LALA (antibody, V domains shown, Humanized; human IgG1 with LALA mutations; also called H4K1 (humanized 1B1)) VH: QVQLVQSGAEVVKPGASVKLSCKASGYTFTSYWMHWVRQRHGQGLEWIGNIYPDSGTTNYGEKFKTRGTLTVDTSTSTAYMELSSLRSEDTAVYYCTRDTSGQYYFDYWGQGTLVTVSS VL: DIVMTQSPDSLAVSAGERATMNCKSSQSLLNSRTRKNYLAWYQHKPGQSPKLLIYWASTRESGVPDRFSGSGSGTDFTLTISSLQAEDVAVYYCVQSFSLRAFGGGTKVEIK", 807000),
    ("1B1-H1K3-IgG1-LALA (antibody, V domains shown, Humanized; human IgG1 with LALA mutations; also called H1K3 (humanized 1B1)) VH: QVQLVQSGAEVKKPGASVKVSCKASGYTFTSYWMHWVRQAPGQGLEWIGNIYPDSGTTNYGEKFKTRVTLTVDTSTSTAYMELSSLRSEDTAVYYCTRDTSGQYYFDYWGQGTLVTVSS VL: DIVMTQSPDSLAVSAGERVTMNCKSSQSLLNSRTRKNYLAWYQHKPGQSPKLLIYWASTRESGVPDRFSGSGSGTDFTLTISSVQAEDVAVYYCVQSFSLRAFGGGTKLEIK", 155000),
    ("1B1-H2K3-IgG1-LALA (antibody, V domains shown, Humanized; human IgG1 with LALA mutations; also called H2K3 (humanized 1B1)) VH: QVQLVQSGAEVKKPGASVKLSCKASGYTFTSYWMHWVRQAPGQGLEWIGNIYPDSGTTNYGEKFKTRVTLTVDTSTSTAYMELSSLRSEDTAVYYCTRDTSGQYYFDYWGQGTLVTVSS VL: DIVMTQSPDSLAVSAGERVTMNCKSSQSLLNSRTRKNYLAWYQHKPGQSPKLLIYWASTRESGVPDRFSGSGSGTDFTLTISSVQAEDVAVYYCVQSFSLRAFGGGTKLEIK", 644000),
    ("1B1-H3K2-IgG1-LALA (antibody, V domains shown, Humanized; human IgG1 with LALA mutations; also called H3K2 (humanized 1B1)) VH: QVQLVQSGAEVKKPGASVKLSCKASGYTFTSYWMHWVRQRHGQGLEWIGNIYPDSGTTNYGEKFKTRVTLTVDTSTSTAYMELSSLRSEDTAVYYCTRDTSGQYYFDYWGQGTLVTVSS VL: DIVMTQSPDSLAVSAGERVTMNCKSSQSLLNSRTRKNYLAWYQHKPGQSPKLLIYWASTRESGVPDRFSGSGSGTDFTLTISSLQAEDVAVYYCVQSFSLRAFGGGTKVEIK", 209000),
]
